system: Cerebellar granule neurone; assay: Stimulation caused by aspartate in Cerebellar Granule Cells over basal stimulation; assay type: functional, Rattus norvegicus
MEASURED_PROPERTY: Stimulation (%)
Enter your answer as a number in %; do not include the unit.

Tell me the measured Stimulation of CC(C)(C)OC(=O)[C@H]1C[C@@H](C(=O)O)N1 , please.
136

// same read-out, input: O=C(O)[C@@H]1CCN1
105

// same read-out, input: COC(=O)[C@H]1C[C@@H](C(=O)OC(C)(C)C)N1
107

// same read-out, input: O=C(O)[C@@H]1C[C@H](C(=O)O)N1
175

---

test system: Cerebellar granule neurone; assay: Influx of calcium in Cerebellar Granule Cells of rat after 10 min of incubation with compound; format: functional
MEASURED_PROPERTY: Influx

Tell me the measured Influx of O=C(O)[C@@H]1C[C@@H](C(=O)O)N1 , please.
14 nM/mg

// same read-out, input: NC(=O)[C@@H]1C[C@H](C(=O)O)N1
20 nM/mg

// same read-out, input: COC(=O)[C@H]1C[C@@H](C(=O)O)N1
18 nM/mg

// same read-out, input: COC(=O)[C@H]1C[C@@H](C(=O)OC(C)(C)C)N1
14 nM/mg

// same read-out, input: NC(=O)[C@@H]1C[C@H](C(N)=O)N1
15 nM/mg

// same read-out, input: CC(C)(C)OC(=O)[C@@H]1C[C@@H](C(=O)O)N1
16 nM/mg

// same read-out, input: O=C(O)[C@@H]1CCN1
16 nM/mg

// same read-out, input: COC(=O)[C@@H]1C[C@H](C(=O)OC)N1
19 nM/mg

// same read-out, input: CC(C)(C)OC(=O)[C@H]1C[C@@H](C(=O)O)N1
15 nM/mg

// same read-out, input: O=C(O)[C@H]1C[C@@H](C(=O)O)N1Cc1ccccc1
15 nM/mg

// same read-out, input: O=C(O)[C@H]1C[C@@H](CO)N1
19 nM/mg

// same read-out, input: CC(=O)N1[C@@H](C(=O)O)C[C@H]1C(=O)O
16 nM/mg

// same read-out, input: CCCCCCN1[C@@H](C(=O)O)C[C@H]1C(=O)O
16 nM/mg

// same read-out, input: COC(=O)[C@@H]1C[C@@H](C(=O)OC(C)(C)C)N1
15 nM/mg

---

system: Cerebellar granule neurone; experiment: Influx of calcium in Cerebellar Granule Cells of rat after 10 min of incubation with compound and 10 uM aspartate; assay type: functional
MEASURED_PROPERTY: Influx (nM/mg)
Enter your answer as a number in nM/mg; do not include the unit.

Could you share what Influx was measured for O=C(O)[C@@H]1C[C@H](C(=O)O)N1 , tested on Cerebellar granule neurone?
68

// same read-out, input: CC(C)(C)OC(=O)[C@H]1C[C@@H](C(=O)O)N1
52

// same read-out, input: O=C(O)[C@@H]1CCN1
44.5

// same read-out, input: COC(=O)[C@H]1C[C@@H](C(=O)OC(C)(C)C)N1
43

// same read-out, input: O=C(O)[C@H]1C[C@@H](CO)N1
58

---

system: Cerebellar granule neurone; assay: Influx of calcium in Cerebellar Granule Cells of rat after 10 min of incubation with compound and 10 uM glutamate; type: functional
Kindly state Influx for each of the entries shown.
Enter your answer as a number in nM/mg; do not include the unit.

Tell me the measured Influx of COC(=O)[C@H]1C[C@@H](C(=O)OC(C)(C)C)N1 , please.
54

// same read-out, input: COC(=O)[C@@H]1C[C@@H](C(=O)OC(C)(C)C)N1
52

// same read-out, input: CC(C)(C)OC(=O)[C@H]1C[C@@H](C(=O)O)N1
67

// same read-out, input: O=C(O)[C@@H]1C[C@@H](C(=O)O)N1
52

// same read-out, input: CC(C)(C)OC(=O)[C@@H]1C[C@@H](C(=O)O)N1
51

// same read-out, input: O=C(O)[C@@H]1C[C@H](C(=O)O)N1
92
